System: DR5
Settings: read-out: PADRE Class II Binding Affinities DR5; Table VIII A
pIC50: −log10 of the molar value. Non-standard residues stand in square brackets, D forms with d. Residues, ends and D or L forms follow the SMILES beside them. Cha = N[C@@H](CC1CCCCC1)C(=O)O

Compound | pIC50
CC(C)C[C@H](NC(=O)[C@@H](NC(=O)[C@H](C)NC(=O)[C@H](CCC(N)=O)NC(=O)[C@H](C)NC(=O)[C@H](C)NC(=O)[C@H](CC1CCCCC1)NC(=O)[C@H](C)NC(=O)[C@@H](C)N)[C@@H](C)O)C(=O)N[C@@H](CCCCN)C(=O)N[C@@H](C)C(=O)N[C@@H](C)C(=O)N[C@H](C)C(N)=O [Peptide 906.20] (H-[dA]A[Cha]AAQATLKAA[dA]-NH2; N-terminus and C-terminus assumed) | 8.39
CC(C)C[C@H](NC(=O)[C@@H](NC(=O)[C@@H](NC(=O)[C@H](C)NC(=O)[C@H](C)NC(=O)[C@H](C)NC(=O)[C@H](CC1CCCCC1)NC(=O)[C@H](C)NC(=O)[C@@H](C)N)[C@@H](C)O)[C@@H](C)O)C(=O)N[C@@H](CCCCN)C(=O)N[C@@H](C)C(=O)N[C@@H](C)C(=O)N[C@H](C)C(N)=O [Peptide 906.28] | 8.30

---

Items are presented alongside their recorded IC50.
Tested on: DR5
Conditions: read-out: PADRE Class II Binding Affinities DR5; Table VIII A
Non-standard residues stand in square brackets, D forms with d. Residues, ends and D or L forms follow the SMILES beside them. Cha = N[C@@H](CC1CCCCC1)C(=O)O

Compound | IC50 (nM)
C[C@H](NC(=O)[C@H](C)NC(=O)[C@H](C)NC(=O)[C@H](CC1CCCCC1)NC(=O)[C@H](C)NC(=O)[C@@H](C)N)C(=O)N[C@@H](C)C(=O)N[C@H](C(=O)N[C@@H](CCC(=O)O)C(=O)N[C@@H](CCCCN)C(=O)N[C@@H](C)C(=O)N[C@@H](C)C(=O)N[C@H](C)C(N)=O)[C@@H](C)O [Peptide 906.30] (H-[dA]A[Cha]AAAATEKAA[dA]-NH2; N-terminus and C-terminus assumed) | 51.5
CC[C@H](C)[C@H](NC(=O)[C@H](CCCCN)NC(=O)[C@H](CC(C)C)NC(=O)[C@@H](NC(=O)[C@H](C)NC(=O)[C@H](C)NC(=O)[C@H](C)NC(=O)[C@H](C)NC(=O)[C@H](CC1CCCCC1)NC(=O)[C@H](C)NC(=O)[C@@H](C)N)[C@@H](C)O)C(=O)N[C@@H](C)C(=O)N[C@H](C)C(N)=O [Peptide 906.45] (H-[dA]A[Cha]AAAATLKIA[dA]-NH2; N-terminus and C-terminus assumed) | 28.2

---

Items are presented alongside their recorded pIC50.
Test system: DR5
Conditions: read-out: PADRE Class II Binding Affinities DR5; Table VIII A
pIC50: −log10 of the molar value. Non-standard residues stand in square brackets, D forms with d. Residues, ends and D or L forms follow the SMILES beside them. Cha = N[C@@H](CC1CCCCC1)C(=O)O

Compound | pIC50
CC(C)C[C@H](NC(=O)[C@@H](NC(=O)[C@H](C)NC(=O)[C@H](C)NC(=O)[C@H](C)NC(=O)[C@H](C)NC(=O)[C@H](CC1CCCCC1)NC(=O)[C@H](C)NC(=O)[C@@H](C)N)[C@@H](C)O)C(=O)N[C@@H](CCCCN)C(=O)N[C@@H](CCCCN)C(=O)N[C@@H](C)C(=O)N[C@H](C)C(N)=O [Peptide 906.40] (H-[dA]A[Cha]AAAATLKKA[dA]-NH2; N-terminus and C-terminus assumed) | 7.78
CC(C)C[C@H](NC(=O)[C@@H](NC(=O)[C@H](C)NC(=O)[C@H](C)NC(=O)[C@H](C)NC(=O)[C@H](C)NC(=O)[C@H](CC1CCCCC1)NC(=O)[C@H](C)NC(=O)[C@@H](C)N)[C@@H](C)O)C(=O)N[C@@H](CCCCN)C(=O)N[C@@H](C)C(=O)N[C@H](C(=O)N[C@H](C)C(N)=O)C(C)C [Peptide 906.49] (H-[dA]A[Cha]AAAATLKAV[dA]-NH2; N-terminus and C-terminus assumed) | 8.35
CC(C)C[C@H](NC(=O)[C@@H](NC(=O)[C@H](C)NC(=O)[C@H](C)NC(=O)[C@H](C)NC(=O)[C@H](C)NC(=O)[C@H](CC1CCCCC1)NC(=O)[C@H](C)NC(=O)[C@@H](C)N)[C@@H](C)O)C(=O)N[C@@H](CCCCN)C(=O)N[C@@H](C)C(=O)N[C@@H](Cc1ccccc1)C(=O)N[C@H](C)C(N)=O [Peptide 906.50] (H-[dA]A[Cha]AAAATLKAF[dA]-NH2; N-terminus and C-terminus assumed) | 8.02
C[C@H](NC(=O)[C@H](C)NC(=O)[C@H](C)NC(=O)[C@H](CC1CCCCC1)NC(=O)[C@H](C)NC(=O)[C@@H](C)N)C(=O)N[C@@H](C)C(=O)N[C@H](C(=O)N[C@@H](CCCCN)C(=O)N[C@@H](CCCCN)C(=O)N[C@@H](C)C(=O)N[C@@H](C)C(=O)N[C@H](C)C(N)=O)[C@@H](C)O [Peptide 906.29] (H-[dA]A[Cha]AAAATKKAA[dA]-NH2; N-terminus and C-terminus assumed) | 8.11

---

Test system: DQ3.1
Details: read-out: PADRE Class II Binding Affinities; Table VIII A
pIC50: −log10 of the molar value. Non-standard residues stand in square brackets, D forms with d. Residues, ends and D or L forms follow the SMILES beside them. Cha = N[C@@H](CC1CCCCC1)C(=O)O

Molecule | Assay target | pIC50
CC(C)C[C@H](NC(=O)[C@@H](NC(=O)[C@H](C)NC(=O)[C@H](C)NC(=O)[C@H](C)NC(=O)[C@H](C)NC(=O)[C@H](CC1CCCCC1)NC(=O)[C@H](C)NC(=O)[C@@H](C)N)[C@@H](C)O)C(=O)N[C@@H](CCCCN)C(=O)N[C@@H](CCCCN)C(=O)N[C@@H](C)C(=O)N[C@H](C)C(N)=O [Peptide 906.40] (H-[dA]A[Cha]AAAATLKKA[dA]-NH2; N-terminus and C-terminus assumed) | DQ3.1 | 7.44
CC(C)C[C@H](NC(=O)[C@@H](NC(=O)[C@H](C)NC(=O)[C@H](C)NC(=O)[C@H](C)NC(=O)[C@H](C)NC(=O)[C@H](CC1CCCCC1)NC(=O)[C@H](C)NC(=O)[C@@H](C)N)[C@@H](C)O)C(=O)N[C@@H](CCC(N)=O)C(=O)N[C@@H](C)C(=O)N[C@@H](C)C(=O)N[C@H](C)C(N)=O [Peptide 906.36] | DQ3.1 | 7.63
CC(C)C[C@H](NC(=O)[C@@H](NC(=O)[C@@H](NC(=O)[C@H](C)NC(=O)[C@H](C)NC(=O)[C@H](C)NC(=O)[C@H](CC1CCCCC1)NC(=O)[C@H](C)NC(=O)[C@@H](C)N)[C@@H](C)O)[C@@H](C)O)C(=O)N[C@@H](CCCCN)C(=O)N[C@@H](C)C(=O)N[C@@H](C)C(=O)N[C@H](C)C(N)=O [Peptide 906.28] | DQ3.1 | 7.55
CC(C)C[C@H](NC(=O)[C@@H](NC(=O)[C@H](C)NC(=O)[C@H](C)NC(=O)[C@H](C)NC(=O)[C@H](C)NC(=O)[C@H](CC1CCCCC1)NC(=O)[C@H](C)NC(=O)[C@@H](C)N)[C@@H](C)O)C(=O)N[C@@H](CCCNC(=N)N)C(=O)N[C@@H](C)C(=O)N[C@@H](C)C(=O)N[C@H](C)C(N)=O [Peptide 906.39] (H-[dA]A[Cha]AAAATLRAA[dA]-NH2; N-terminus and C-terminus assumed) | DQ3.1 | 7.54
C[C@H](NC(=O)[C@H](C)NC(=O)[C@H](C)NC(=O)[C@H](CC1CCCCC1)NC(=O)[C@H](C)NC(=O)[C@@H](C)N)C(=O)N[C@@H](C)C(=O)N[C@H](C(=O)N[C@@H](CCCCN)C(=O)N[C@@H](CCCCN)C(=O)N[C@@H](C)C(=O)N[C@@H](C)C(=O)N[C@H](C)C(N)=O)[C@@H](C)O [Peptide 906.29] (H-[dA]A[Cha]AAAATKKAA[dA]-NH2; N-terminus and C-terminus assumed) | DQ3.1 | 6.55

---

System: DQ3.1
Settings: read-out: PADRE Class II Binding Affinities; Table VIII A
Non-standard residues stand in square brackets, D forms with d. Residues, ends and D or L forms follow the SMILES beside them. Cha = N[C@@H](CC1CCCCC1)C(=O)O

Molecule | Assay target | IC50 (nM)
CC[C@H](C)[C@H](NC(=O)[C@@H](NC(=O)[C@H](C)NC(=O)[C@H](C)NC(=O)[C@H](C)NC(=O)[C@H](C)NC(=O)[C@H](CC1CCCCC1)NC(=O)[C@H](C)NC(=O)[C@@H](C)N)[C@@H](C)O)C(=O)N[C@@H](CCCCN)C(=O)N[C@@H](C)C(=O)N[C@@H](C)C(=O)N[C@H](C)C(N)=O [Peptide 906.34] | DQ3.1 | 30.5
CC(C)C[C@H](NC(=O)[C@@H](NC(=O)[C@H](C)NC(=O)[C@H](C)NC(=O)[C@H](C)NC(=O)[C@H](C)NC(=O)[C@H](CC1CCCCC1)NC(=O)[C@H](C)NC(=O)[C@@H](C)N)[C@@H](C)O)C(=O)N[C@@H](CCCCN)C(=O)N[C@@H](C)C(=O)N[C@@H](Cc1ccccc1)C(=O)N[C@H](C)C(N)=O [Peptide 906.50] (H-[dA]A[Cha]AAAATLKAF[dA]-NH2; N-terminus and C-terminus assumed) | DQ3.1 | 20

These data points were gathered from patent US6413935B1.
